# runDescription: Body temperature (hypothermia) in rats
# settings: 5 mg/kg intraperitoneal, rats
Square brackets hold non-standard residues; d marks the D form. Peptide text beside a SMILES is read from it. Ala(indol-4-yl) = N[C@@H](Cc1cccc2[nH]ccc12)C(=O)O; NMeR = CN[C@@H](CCCNC(=N)N)C(=O)O; Tle = CC(C)(C)[C@H](N)C(=O)O; Dab = NCC[C@H](N)C(=O)O
Can you tell me Peak BT change for the items I'm about to list?

compound="CC(C)C[C@H](NC(=O)[C@@H](NC(=O)[C@H](Cc1cccc2[nH]ccc12)NC(=O)[C@@H]1CCCN1C(=O)[C@H](CCCNC(=N)N)NC(=O)[C@H](N)CCCCN)C(C)(C)C)C(=O)O [NT66L] (H-[dK]RP[Ala(indol-4-yl)][Tle]L-OH; N-terminus and C-terminus assumed)" recordedresult="−5.0 @ ° C."
compound="CC[C@H](C)[C@H](NC(=O)[C@H](Cc1cccc2[nH]ccc12)NC(=O)[C@@H]1CCCN1C(=O)[C@H](N)CCCCN)C(=O)N[C@@H](CC(C)C)C(=O)O [NT73] (H-[dK]P[Ala(indol-4-yl)]IL-OH; N-terminus and C-terminus assumed)" recordedresult="−0.9 @ ° C."
compound="CC(C)C[C@H](NC(=O)[C@@H](NC(=O)[C@H](Cc1cccc2[nH]ccc12)NC(=O)[C@@H]1CCCN1C(=O)[C@H](N)CCCCN)C(C)(C)C)C(=O)O [NT72] (H-[dK]P[Ala(indol-4-yl)][Tle]L-OH; N-terminus and C-terminus assumed)" recordedresult="−2.8 @ ° C."

# context switch: different compound, same Peak BT change
[ask] Give the measured Peak BT change of CN[C@@H](CCCNC(=N)N)C(=O)N[C@@H](CCN)C(=O)N1CCC[C@H]1C(=O)N[C@@H](Cc1cccc2[nH]ccc12)C(=O)N[C@H](C(=O)N[C@@H](CC(C)C)C(=O)O)C(C)(C)C [NT71] (H-[NMeR][Dab]P[Ala(indol-4-yl)][Tle]L-OH; N-terminus and C-terminus assumed) .
[reply] −2.4 @ ° C.
